Measured log10 of MIC values are reported for all entries that follow.
# method: Comparative in vitro antibacterial activity with trimethoprim against Salmonella typhi CN512
# Format: functional, salmonella typhosa
log10 MIC, µg/mL

Example entries and their recorded answers appear below.
COc1cc(Cc2cnc(N)nc2N)cc2c1N(CCO)CCC2C (stereo unspecified)    1.48
COc1cc(Cc2cnc(N)nc2N)cc2c1N(CCOC(C)=O)CCC2C (stereo unspecified)    1.48
COCCN1CCC(C)c2cc(Cc3cnc(N)nc3N)cc(OC)c21 (stereo unspecified)    1.48
COc1cc(Cc2cnc(N)nc2N)cc2c1NCCC2    0.48
COc1cc(Cc2cnc(N)nc2N)cc2c1NCC(COC(C)=O)C2 (stereo unspecified)    1.48

Turning now to a further record.
**Query** Which log10 of MIC is listed for `COc1cc(Cc2cnc(N)nc2N)cc2cccnc12` ?
**Result** 0.48

====

# experimental_target: Dihydrofolate reductase (Rattus norvegicus, UniProt Q920D2)
# Sequence (Q920D2 whole entry): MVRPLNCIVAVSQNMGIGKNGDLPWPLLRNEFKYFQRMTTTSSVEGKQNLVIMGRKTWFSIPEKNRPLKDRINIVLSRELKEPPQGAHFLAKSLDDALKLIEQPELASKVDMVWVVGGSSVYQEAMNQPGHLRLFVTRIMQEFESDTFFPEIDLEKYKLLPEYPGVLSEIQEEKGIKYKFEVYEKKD
pIC50: −log10 of the molar value.
Rule: pIC50 under 4 gives NOT MET, otherwise MET.

Take a look at these entries with their results.
COc1cc(Cc2cnc(N)nc2N)cc2c1NCC(COC(C)=O)C2 (stereo not drawn)    MET
COc1cc(Cc2cnc(N)nc2N)cc2cccnc12    MET
CC1CC(C)c2cc(Cc3cnc(N)nc3N)cc(Cl)c2N1 (stereo not drawn)    MET

**Query** Decide: pIC50 of COc1cc(Cc2cnc(N)nc2N)cc2c1N(CCO)CCC2C (stereo not drawn) >= 4?
**Result** NOT MET

**Query** Determine whether measured pIC50 meets or exceeds 4 for `Cc1ccnc2c([N+](=O)[O-])cc(Cc3cnc(N)nc3N)cc12`
**Result** MET

**Query** Is reported pIC50 greater than or equal to 4 here: CCOC(=O)C1CNc2c(OC)cc(Cc3cnc(N)nc3N)c(OC)c2C1 (stereo not drawn)
**Result** NOT MET

**Query** API: above_or_equal(metric=pIC50, cutoff=4) for item `Cc1ccnc2c(N)cc(Cc3cnc(N)nc3N)cc12`
**Result** MET

**Query** Is the recorded value of pIC50 equal to or greater than 4 for this compound? CCc1cc(Cc2cnc(N)nc2N)cc2c1N(C)CCC2C (stereo not drawn)
**Result** MET

====

Reported pIC50, Dihydrofolate reductase (Neisseria gonorrhoeae).
// pIC50 here means minus log10 of the molar concentration (mol/L)

Examples with answers:
CC1CCNc2ccc(Cc3cnc(N)nc3N)cc21 (configuration not stated)    6.40
CN1CCCc2cc(Cc3cnc(N)nc3N)ccc21    6.02
COc1cc(Cc2cnc(N)nc2N)cc2c1NCC(COC(C)=O)C2 (configuration not stated)    6.80
COc1cc(Cc2cnc(N)nc2N)cc2c1NCC(CO)C2 (configuration not stated)    6.39
COCCOc1cc(Cc2cnc(N)nc2N)cc2c1NCCC2    6.28

Here's the next entry for you.
**Query** Find pIC50 (Dihydrofolate reductase (Neisseria gonorrhoeae)) for the entry COCCN1CCC(C)c2cc(Cc3cnc(N)nc3N)cc(OC)c21 (configuration not stated)
**Result** 5.85

====

# Test system: Enterococcus faecalis
# method: Comparative in vitro antibacterial activity with trimethoprim against Streptococcus faecalis CN478
# Assay type: functional
experimental_endpoint: MIC (µg/mL)
Give the value, in units of µg/mL, as a plain number.

CN1CCCc2cc(Cc3cnc(N)nc3N)ccc21    3
CC1CC(C)c2cc(Cc3cnc(N)nc3N)cc(Cl)c2N1 (stereo not drawn)    3
CCOC(=O)C1CNc2c(cc(Cc3cnc(N)nc3N)cc2OC)C1 (stereo not drawn)    30
COc1cc(Cc2cnc(N)nc2N)cc2c1N(C)CCC2C (stereo not drawn)    0.3
COc1cc(Cc2cnc(N)nc2N)cc2c1NCC(COC(C)=O)C2 (stereo not drawn)    3

**Query** MIC for `COCCOc1cc(Cc2cnc(N)nc2N)cc2cccnc12` ?
**Result** 3

**Query** Item `COCCOc1cc(Cc2cnc(N)nc2N)cc2c1NCCC2` has what recorded MIC?
**Result** 3

**Query** What value of MIC has been recorded for this entry: COc1cc(Cc2cnc(N)nc2N)cc2c1NCCC2C (stereo not drawn)
**Result** 1

**Query** For `COc1cc(Cc2cnc(N)nc2N)cc2c(C)ccnc12` , what is its reported MIC?
**Result** 1

**Query** Recorded MIC of COc1cc(Cc2cnc(N)nc2N)cc2c1NCC(CO)C2 (stereo not drawn) , please.
**Result** 3

**Query** Which measured MIC value corresponds to CC1CCNc2ccc(Cc3cnc(N)nc3N)cc21 (stereo not drawn) ?
**Result** 3

**Query** Consider the compound `COc1cc(Cc2cnc(N)nc2N)cc2c(C)cc(C)nc12` and give its measured MIC.
**Result** 1

====

# Test system: Shigella flexneri
# method: Comparative in vitro antibacterial activity with trimethoprim against Shigella flexneri CN6007
# Format: functional
The entries below come with measured MIC values attached.

Cc1ccnc2c(N)cc(Cc3cnc(N)nc3N)cc12    30 µg/mL

**Query** # get_value(readout='MIC', item= COc1cc(Cc2cnc(N)nc2N)cc2c1N(CCOC(C)=O)CCC2C (stereo not drawn) )
**Result** 30 µg/mL

**Query** Which value of MIC has been reported for CCOC(=O)C1CNc2c(cc(Cc3cnc(N)nc3N)cc2OC)C1 (stereo not drawn) in the records?
**Result** 10 µg/mL

**Query** Item under review: COc1cc(Cc2cnc(N)nc2N)cc2c1NCC(CO)C2 (stereo not drawn) . Reported MIC?
**Result** 30 µg/mL

**Query** What value of MIC has been reported for the following compound? COc1cc(Cc2cnc(N)nc2N)cc2c1NCC(COC(C)=O)C2 (stereo not drawn)
**Result** 30 µg/mL

**Query** // returns reported MIC for input `Nc1ncc(Cc2ccc3c(c2)CCCN3)c(N)n1`
**Result** 30 µg/mL

**Query** // query MIC value for entry `Cc1ccnc2ccc(Cc3cnc(N)nc3N)cc12`
**Result** 3 µg/mL

**Query** Which MIC reading was recorded for the compound `COc1cc(Cc2cnc(N)nc2N)cc2c(C)ccnc12` ?
**Result** 1 µg/mL

====

# method: Comparative in vitro antibacterial activity with trimethoprim against Salmonella typhi CN512
# Format: functional, salmonella typhosa
experimental_endpoint: log10(MIC) (log10 of the value in µg/mL)
Use the decimal logarithm of MIC (µg/mL).

Here's what some known entries look like.
Cc1ccnc2c([N+](=O)[O-])cc(Cc3cnc(N)nc3N)cc12    0.48
Cc1ccnc2ccc(Cc3cnc(N)nc3N)c(N)c12    2.00
CCN1CC(CO)Cc2cc(Cc3cnc(N)nc3N)cc(OC)c21 (stereo not given)    2.00
CN1CCCc2cc(Cc3cnc(N)nc3N)ccc21    1.48
COc1cc(Cc2cnc(N)nc2N)cc2c1NCC(CO)C2 (stereo not given)    1.00

**Query** log10(MIC) lookup needed for `Cc1ccnc2ccc(Cc3cnc(N)nc3N)cc12` , thanks.
**Result** 0.00

**Query** Fill in the blank: the reported log10(MIC) of `COCCOc1cc(Cc2cnc(N)nc2N)cc2c1NCCC2` is ____.
**Result** 2.00

**Query** What measured log10(MIC) goes with CC1CCNc2ccc(Cc3cnc(N)nc3N)cc21 (stereo not given) ?
**Result** 1.00

**Query** Fill in: log10(MIC) of COc1cc(Cc2cnc(N)nc2N)cc2c1NCCC2C (stereo not given) is ___
**Result** 1.00

**Query** For the compound `Nc1ncc(Cc2ccc3c(c2)CCCN3)c(N)n1` , what log10(MIC) is on record?
**Result** 1.00

====

# experimental_target: Dihydrofolate reductase (Neisseria gonorrhoeae)
# Sequence (P04174 whole entry): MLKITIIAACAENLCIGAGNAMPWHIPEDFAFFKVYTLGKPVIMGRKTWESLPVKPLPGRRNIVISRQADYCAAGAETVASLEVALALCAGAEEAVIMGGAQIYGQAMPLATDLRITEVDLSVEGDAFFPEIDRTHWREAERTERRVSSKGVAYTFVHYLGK
Each entry below carries its recorded pIC50.
Worth noting: pIC50 values are minus log10 of concentrations stated in mol/L.

COc1cc(Cc2cnc(N)nc2N)cc2c1N(CCOC(C)=O)CCC2C (stereo unspecified)    6.20
CC1CC(C)c2cc(Cc3cnc(N)nc3N)cc(Cl)c2N1 (stereo unspecified)    6.62

**Query** For the compound COc1cc(Cc2cnc(N)nc2N)cc2c1N(C)CCC2C (stereo unspecified) , what pIC50 is on record?
**Result** 6.05

**Query** Query: pIC50; subject: CCN1CC(CO)Cc2cc(Cc3cnc(N)nc3N)cc(OC)c21 (stereo unspecified)
**Result** 5.59

**Query** Which pIC50 value belongs to CCc1cc(Cc2cnc(N)nc2N)cc2c1N(C)CCC2C (stereo unspecified) ?
**Result** 6.52

**Query** Consider the compound shown here: `COc1cc(Cc2cnc(N)nc2N)cc2c1NCCC2` What is its recorded pIC50?
**Result** 6.29
